The reported measurements were obtained from patent US6949679B1.

# TEST_METHOD_NOTES: in vitro
# REPORTED_CONDITIONS: human, ZR-75-1 cells
RECORDED_METRIC: IC50 (µM)
Reply with just the number (in µM).

IC50 reported for this compound NCCCCN(CCCN)CCSSCCN(CCCN)CCCCN [BABAC] : 17

---

# Test system: polyamine transporter
# TEST_METHOD_NOTES: Inhibition of [3H]putrescine uptake in ZR-75-1 cells
# Assay type: cell-based, human
# REPORTED_CONDITIONS: ZR-75-1 cells, FIG. 32; 20 μM and 3 μM substrate, respectively; read-out: Apparent Ki, putrescine uptake
For each record, write down the corresponding Ki.
Reply with just the number (in nM).

polyamine transporter assay, compound NCCCCN(CCCN)CCSSCCN(CCCN)CCCCN [BABAC] , recorded Ki = 150

polyamine transporter assay, compound NCCCNCCCC(NCCCN)C(=O)NCCSSCCNC(=O)C(CCCNCCCN)NCCCN (stereo not shown) [DESC] , recorded Ki = 540

polyamine transporter assay, compound NCCCCN(CCS)CCCN [AAC] , recorded Ki = 540

polyamine transporter assay, compound NCCCNCCCCNCCCN [Spermine, reference compound] , recorded Ki = 74.5

---

# TEST_METHOD_NOTES: in vitro
# REPORTED_CONDITIONS: human
RECORDED_METRIC: pIC50
By convention, pIC50 is the negative base-10 log of a molar concentration.

pIC50 reported for this compound NCCCNCCCN [sym-norspermidine, N-(3-aminopropyl)-1,3-diaminopropane, reference compound] : 5.19
